Reported values of IC50 for individual entries
# Test method notes: Inhibition of recombinant Trypanosoma cruzi G6PDH expressed in Escherichia coli by fluorescence assay
Reported metric: IC50 (µM)

>>> observed_value("CN1CCN(CCC(=O)O[C@H]2CC[C@@]3(C)[C@@H](CC[C@@H]4[C@@H]3CC[C@]3(C)C(=O)CC[C@@H]43)C2)CC1")
10
>>> observed_value("C[C@]12CC[C@H](OC(=O)CCN3CCOCC3)C[C@@H]1CC[C@@H]1[C@@H]2CC[C@]2(C)C(=O)CC[C@@H]12")
10
>>> observed_value("C[C@]12CC[C@H](OCCS(=O)(=O)N3CCOCC3)C[C@@H]1CC[C@@H]1[C@@H]2CC[C@]2(C)C(=O)CC[C@@H]12")
20
>>> observed_value("C[C@]12CC[C@H](OC(=O)CN3CCOCC3)C[C@@H]1CC[C@@H]1[C@@H]2CC[C@]2(C)C(=O)CC[C@@H]12")
10
>>> observed_value("CN1CCN(CC(=O)O[C@H]2CC[C@@]3(C)[C@@H](CC[C@@H]4[C@@H]3CC[C@]3(C)C(=O)CC[C@@H]43)C2)CC1")
10
>>> observed_value("CN1CCN(CCS(=O)(=O)O[C@H]2CC[C@@]3(C)[C@@H](CC[C@@H]4[C@@H]3CC[C@]3(C)C(=O)CC[C@@H]43)C2)CC1")
5
>>> observed_value("C[C@]12CC[C@H](OS(=O)(=O)CCN3CCOCC3)C[C@@H]1CC[C@@H]1[C@@H]2CC[C@]2(C)C(=O)CC[C@@H]12")
5
